Tested on: DL1 cells
assay_method_text: cytotoxicity in Drosophila DL1 cells
Type: cell-based
condition_parameters: DL1 cells, 0.04 µM, replicate 1
parameter_measured: Luminescence Raw1
Hey, just send me the number, nothing else.

Below are worked cases with known answers.
C=C1CC[C@@H]2[C@](C)(CC[C@H]3O[C@H](C=C(C)C)C[C@@]23C)[C@@H]1Cc1c(OC)oc(CO)c(C(=O)OC)c1=O
237970
C=C1CCC2C(C)(CCC=C(C)C)C(O)CCC2(C)C1Cc1c(O)c(C)c(C)oc1=O (stereo not shown)
3124696
C=C1CC[C@H]2[C@]3(C)C[C@@H](C=C(C)C)O[C@H]3CC[C@]2(C)[C@@H]1Cc1c(O)c(C)c(C)oc1=O
261750

For the compound C=C1CCC2C(C)(CCC=C(C)C)C(O)CCC2(C)C1Cc1c(OC)oc(CO)c(C(=O)OC)c1=O (stereo not shown) , report Luminescence Raw1.
2061595

----------
Catalogue of Th-T fluorescence, mean of three wells values
tested_system: Aβ42 (Homo sapiens)
Sequence (P05067 672-713): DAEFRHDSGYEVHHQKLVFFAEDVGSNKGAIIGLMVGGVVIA
assay_method_text: Th-T (thioflavin-T) assay of Aβ42 aggregation
Format: biochemical
condition_parameters: Aβ42 aggregation time course, reading M128
Hey, just send me the number, nothing else.

C=C1CC[C@H]2[C@]3(C)C[C@H](C=C(C)C)O[C@H]3CC[C@]2(C)[C@@H]1Cc1c(OC)oc(CO)c(C)c1=O
3.792
C=C1CC[C@H]2[C@]3(C)C[C@H](C=C(C)C)O[C@H]3CC[C@]2(C)[C@@H]1Cc1c(O)c(C)c(C)oc1=O
3.027
C=C1CCC2C(C)(CC(=O)C=C(C)C)C(O)CCC2(C)C1Cc1c(OC)oc(C)c(C)c1=O (stereo not drawn)
3.504
C=C1CCC2C(C)(CCC=C(C)C)C(O)CCC2(C)C1Cc1c(OC)oc(C)c(C(=O)OC)c1=O (stereo not drawn)
1.7014
C=C1CC[C@H]2[C@]3(C)C[C@H](C=C(C)C)O[C@H]3CC[C@]2(C)[C@@H]1Cc1c(OC)oc(C)c(C)c1=O
3.875
C=C1CCC2C(C)(CC(=O)C=C(C)C)C(O)CCC2(C)C1Cc1c(O)c(C)c(C)oc1=O (stereo not drawn)
3.459
C=C1CCC2C(C)(CC(=O)C=C(C)C)C(O)CCC2(C)C1Cc1c(OC)oc(CO)c(C)c1=O (stereo not drawn)
3.613
C=C1CC[C@H]2[C@]3(C)C[C@@H](C=C(C)C)O[C@H]3CC[C@]2(C)[C@@H]1Cc1c(OC)oc(CO)c(C)c1=O
3.617

For the compound C=C1CCC2C(C)(CCC=C(C)C)C(O)CCC2(C)C1Cc1c(OC)oc(C)c(C)c1=O (stereo not drawn) [Compound 15, viridoxin A hydrolysate] , report Th-T fluorescence, mean of three wells.
3.323

For the compound C=C1CC[C@@H]2[C@](C)(CC[C@H]3O[C@H](C=C(C)C)C[C@@]23C)[C@@H]1Cc1c(O)c(C)c(C)oc1=O , report Th-T fluorescence, mean of three wells.
2.986

For the compound C=C1CC[C@@H]2[C@](C)(CC[C@H]3O[C@H](C=C(C)C)C[C@@]23C)[C@@H]1Cc1c(OC)oc(CO)c(C(=O)OC)c1=O , report Th-T fluorescence, mean of three wells.
1.04

For the compound C=C1CC[C@H]2[C@]3(C)C[C@@H](C=C(C)C)O[C@H]3CC[C@]2(C)[C@@H]1Cc1c(O)c(C)c(C)oc1=O , report Th-T fluorescence, mean of three wells.
2.643

For the compound C=C1CCC2C(C)(CCC=C(C)C)C(O)CCC2(C)C1Cc1c(OC)oc(CO)c(C(=O)OC)c1=O (stereo not drawn) , report Th-T fluorescence, mean of three wells.
1.038

For the compound C=C1CCC2C(C)(CCC=C(C)C)C(O)CCC2(C)C1Cc1c(OC)oc(C)c(C)c1=O (stereo not drawn) [Compound 11] , report Th-T fluorescence, mean of three wells.
3.37

For the compound CC(C)=CCC/C(C)=C/CC/C(C)=C/CC/C(C)=C/Cc1c(O)c(C)c(C)oc1=O , report Th-T fluorescence, mean of three wells.
2.947

For the compound C=C1CCC2C(C)(CCC=C(C)C)C(=O)CCC2(C)C1Cc1c(O)c(C)c(C)oc1=O (stereo not drawn) , report Th-T fluorescence, mean of three wells.
2.217

For the compound C=C1CC[C@@H]2[C@](C)(CC[C@H]3O[C@H](C=C(C)C)C[C@@]23C)[C@@H]1Cc1c(OC)oc(CO)c(C)c1=O , report Th-T fluorescence, mean of three wells.
4.137

For the compound C=C1CCC2C(C)(CCC=C(C)C)C(O)CCC2(C)C1Cc1c(O)c(C)c(C)oc1=O (stereo not drawn) [Compound 9, higginsianin B] , report Th-T fluorescence, mean of three wells.
2.756
